# Measurement Notes: Equilibrium aqueous solubility under pH controlled conditions
# Type: physicochemical
# Test Conditions: in water, pH 6.95; read-out: solubility
Endpoint Label: solubility

Which solubility is listed for COc1cc2c(N3CCN(C(=O)Nc4ccc(OC(C)C)cc4)CC3)ncnc2cc1OCCCN1CCCCC1 ?
~1240 µg/mL

====

# Measurement Notes: Equilibrium aqueous solubility under pH controlled conditions
# Format: physicochemical
# Test Conditions: pH 3.65, aqueous buffer, thermodynamic from solid, equilibrium aqueous, pH 3.65; read-out: Solubility
Endpoint Label: solubility (mg/mL)
Report the figure in mg/mL without appending any unit label.

Which solubility is listed for COc1cc2c(N3CCN(C(=O)Nc4ccc(OC(C)C)cc4)CC3)ncnc2cc1OCCCN1CCCCC1.C[C@H](O)C(=O)O [Form 4] ?
359

====

# Measurement Notes: Equilibrium aqueous solubility under pH controlled conditions
# Format: physicochemical
# Test Conditions: pH 5.85, aqueous buffer, thermodynamic from solid, equilibrium aqueous, pH 5.85; read-out: Solubility
Endpoint Label: solubility (mg/mL)
Report the figure in mg/mL without appending any unit label.

Which solubility is listed for COc1cc2c(N3CCN(C(=O)Nc4ccc(OC(C)C)cc4)CC3)ncnc2cc1OCCCN1CCCCC1.C[C@H](O)C(=O)O [Form 4] ?
412

====

# Measurement Notes: Equilibrium aqueous solubility under pH controlled conditions
# Assay type: physicochemical
# Test Conditions: pH 5.96, aqueous buffer, thermodynamic from solid, equilibrium aqueous, pH 5.96; read-out: Solubility
Endpoint Label: solubility

Which solubility is listed for COc1cc2c(N3CCN(C(=O)Nc4ccc(OC(C)C)cc4)CC3)ncnc2cc1OCCCN1CCCCC1.C[C@H](O)C(=O)O [Form 1] ?
458 mg/mL

====

# Measurement Notes: Equilibrium aqueous solubility under pH controlled conditions
# Assay type: physicochemical
# Test Conditions: pH 4.23, aqueous buffer, thermodynamic from solid, equilibrium aqueous, pH 4.23; read-out: Solubility
Endpoint Label: solubility (mg/mL)
Report the figure in mg/mL without appending any unit label.

Which solubility is listed for COc1cc2c(N3CCN(C(=O)Nc4ccc(OC(C)C)cc4)CC3)ncnc2cc1OCCCN1CCCCC1.C[C@H](O)C(=O)O [Form 1] ?
511

====

# Measurement Notes: Equilibrium aqueous solubility under pH controlled conditions
# Assay type: physicochemical
# Test Conditions: pH 6.03, aqueous buffer, thermodynamic from solid, equilibrium aqueous, pH 6.03; read-out: Solubility
Endpoint Label: solubility (mg/mL)
Report the figure in mg/mL without appending any unit label.

Which solubility is listed for COc1cc2c(N3CCN(C(=O)Nc4ccc(OC(C)C)cc4)CC3)ncnc2cc1OCCCN1CCCCC1.C[C@H](O)C(=O)O [Form 4] ?
327
